Reference for the values: patent US20230295310A1

Attribute: pKd
# tested on: T1, human CD3e/d (human, UniProt P07766 23-126; P04234 22-105)
# T1 construct: Bought soluble protein; also called hCD3e/d; human CD3/ed (Sino CT038-H2508H)
# T1 sequence (P07766 23-126, chain 1 of 2): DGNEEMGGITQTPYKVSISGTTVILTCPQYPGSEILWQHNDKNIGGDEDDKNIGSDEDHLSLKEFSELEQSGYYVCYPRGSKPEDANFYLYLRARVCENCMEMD
# T1 sequence (P04234 22-105, chain 2 of 2): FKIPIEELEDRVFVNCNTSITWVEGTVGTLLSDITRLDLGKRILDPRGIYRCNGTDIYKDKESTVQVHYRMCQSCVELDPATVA
# assay notes: SPR (Carterra LSA), mAb on chip
pKd field: float, defined as -log10 of concentration (mol/L).

See these solved cases before continuing.
mAb 258 (antibody, V domains shown, VH and VL only) VH: EVQLLESGGGLVQPGGSLRLSCAASGFTFSNYAMNWVRQAPGKGLEWVSVISNSGGTRLYVDSVKGRFTISRDNSKNTLYLQMSSLRAADTAVYYCAKDAAAALYYYYFYYMDVWGKGTTVTVSS VL: EIVLTQSPDFQSVTPKEKVTITCRASQSIGSSLHWYQQKPDQSPKLLIKYASQSFSGVPSRFSGSGSGTDFTLTINSLEAEDAATYYCHQSSSLPYTFGQGTKLEIK
7.62
mAb 72 (antibody, V domains shown, VH and VL only) VH: EVQLVDSGGGLVQPGGSLRLSCAASGFTFSSYWMSWVRQAPGKGLEWVANIKQDGSEKYYVDSVKGRFTISRDNVKNSLSLEMNSLRAEDTALYYCARDESSSWYWYFDLWGRGTLVTVSS VL: DIQMTQSPSTLSASVGDRVTITCRASQSISKWLAWYQQKPGKAPKLLIYKASSLENGVPSRFSGSGSGTEFTLTISSLQPDDFATYYCQQYSSYSRTFGQGTKVEIK
6.22
mAb 230 (antibody, V domains shown, VH and VL only) VH: EVQLLESGGGLVQPGGSLRLSCAASGFTFSSYAMSWVRQAPGKGLEWVSSISGSGGSRYYADSVKGRFTISRDNSKNTLYLQMNSLRAEDTAVYYCAKDPVQDRYYFYYYYMDVWGKGTTVTVSS VL: EIVLTQSPDFQSVTPKEKVTITCRASQSIGSSLHWYQQKPDQSPKLLIKYASQSISGVPSRFSGSGSGTDFTLTINSLEAEDAAAYYCHQSSSLPHTFGQGTKLEIK
7.74

*Q* Looking for the measured pKd of mAb 161 (antibody, V domains shown, VH and VL only) VH: EVQLVESGGGLVQPGRSLRLSCAASGITFADYTMHWVRQAPGKGLEWVSGISWNSGSIDYADSVKGRFTISRDNAKKTLYLQMNRLRAEDTALYYCAKDSSGYGHYYFYYLDVWGKGTTVTVSS VL: EIVMTQSPATLSVSPGERATLSCRASQSVSNNLAWYQQKPGQAPRLLIYSTSTRATGIPARFSGSRSGTEFTLTISSLQSEDSAVYYCQQYNNWPHFGQGTRLEIK , can you help?
*A* 7.62

*Q* Would you kindly repeat that for mAb 215 (antibody, V domains shown, VH and VL only) VH: QVQLVESGGGVVQPGRSLRLSCAATGFTFSGYGMHWVRQAPGKGLEWVAIIYYNGNNRKYADSVKGRFTISRDNSKNTVSLQMNSLRVEDTAIYYCTRGDGYNWFVTWGQGTLVTVSS VL: EIVMTQSPATLSVSPGERATLSCRASQSVSSNLAWYRQKPGQAPRLLIYGASTRATGIPVRFSGSGSGTEFTLTISSLQSEDFAVYYCQQYNNWPLTFGGGTKVEIK ?
*A* 7.12
